Values compiled from paper PMC12416549.

Assayed Target: T1, TNFR1 (Homo sapiens, UniProt P19438)
T1 chain: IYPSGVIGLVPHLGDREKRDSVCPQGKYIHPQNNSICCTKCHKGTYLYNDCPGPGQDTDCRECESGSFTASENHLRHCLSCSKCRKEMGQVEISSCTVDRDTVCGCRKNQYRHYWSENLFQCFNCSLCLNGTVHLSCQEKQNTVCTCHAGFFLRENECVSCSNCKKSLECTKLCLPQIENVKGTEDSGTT
Test Summary: yeast display SC50
Readout Name: apparent Kd (screen) (nM)

Use these answered entries as a reference point.
Note to self: apparent Kd (screen) recorded for E60Q (designed binder) SMEEEVEKAAKEYEKKKKEAIEKHLEKLKAKDKEAAERFLKELEEAAKEYAKDEAKTMSQEEAKRRAKKYKEKVLLSELSEEEQKEIKEAEEKLVRTILKYVEEAAK was 1.05

Note to self: apparent Kd (screen) recorded for L79W (designed binder) SMEEEVEKAAKEYEKKKKEAIEKHLEKLKAKDKEAAERFLKELEEAAKEYAKDEAKTMSEEEAKRRAKKYKEKVLLSEWSEEEQKEIKEAEEKLVRTILKYVEEAAK was 6.43

Note to self: apparent Kd (screen) recorded for S80Y (designed binder) SMEEEVEKAAKEYEKKKKEAIEKHLEKLKAKDKEAAERFLKELEEAAKEYAKDEAKTMSEEEAKRRAKKYKEKVLLSELYEEEQKEIKEAEEKLVRTILKYVEEAAK was 2.05

Note to self: apparent Kd (screen) recorded for A106E (designed binder) SMEEEVEKAAKEYEKKKKEAIEKHLEKLKAKDKEAAERFLKELEEAAKEYAKDEAKTMSEEEAKRRAKKYKEKVLLSELSEEEQKEIKEAEEKLVRTILKYVEEAEK was 1.27

Note to self: apparent Kd (screen) recorded for K69Y (designed binder) SMEEEVEKAAKEYEKKKKEAIEKHLEKLKAKDKEAAERFLKELEEAAKEYAKDEAKTMSEEEAKRRAKYYKEKVLLSELSEEEQKEIKEAEEKLVRTILKYVEEAAK was 2.48

Note to self: apparent Kd (screen) recorded for K56M (designed binder) SMEEEVEKAAKEYEKKKKEAIEKHLEKLKAKDKEAAERFLKELEEAAKEYAKDEAMTMSEEEAKRRAKKYKEKVLLSELSEEEQKEIKEAEEKLVRTILKYVEEAAK was 0.718

Note to self: apparent Kd (screen) recorded for E60P (designed binder) SMEEEVEKAAKEYEKKKKEAIEKHLEKLKAKDKEAAERFLKELEEAAKEYAKDEAKTMSPEEAKRRAKKYKEKVLLSELSEEEQKEIKEAEEKLVRTILKYVEEAAK was 2.05

Note to self: apparent Kd (screen) recorded for M58S (designed binder) SMEEEVEKAAKEYEKKKKEAIEKHLEKLKAKDKEAAERFLKELEEAAKEYAKDEAKTSSEEEAKRRAKKYKEKVLLSELSEEEQKEIKEAEEKLVRTILKYVEEAAK was 4.39

Note to self: apparent Kd (screen) recorded for E89I (designed binder) SMEEEVEKAAKEYEKKKKEAIEKHLEKLKAKDKEAAERFLKELEEAAKEYAKDEAKTMSEEEAKRRAKKYKEKVLLSELSEEEQKEIKIAEEKLVRTILKYVEEAAK was 3

Note to self: apparent Kd (screen) recorded for K41M (designed binder) SMEEEVEKAAKEYEKKKKEAIEKHLEKLKAKDKEAAERFLMELEEAAKEYAKDEAKTMSEEEAKRRAKKYKEKVLLSELSEEEQKEIKEAEEKLVRTILKYVEEAAK was 0.446

(a) E60K (designed binder) SMEEEVEKAAKEYEKKKKEAIEKHLEKLKAKDKEAAERFLKELEEAAKEYAKDEAKTMSKEEAKRRAKKYKEKVLLSELSEEEQKEIKEAEEKLVRTILKYVEEAAK
(b) K17G (designed binder) SMEEEVEKAAKEYEKKGKEAIEKHLEKLKAKDKEAAERFLKELEEAAKEYAKDEAKTMSEEEAKRRAKKYKEKVLLSELSEEEQKEIKEAEEKLVRTILKYVEEAAK
For the two items a and b , which reports the higher apparent Kd (screen) value? Field: selected label. Fill in the label of the entry you choose. b
(b: 2.73 nM, a: 1.69 nM)

(A) R65N (designed binder) SMEEEVEKAAKEYEKKKKEAIEKHLEKLKAKDKEAAERFLKELEEAAKEYAKDEAKTMSEEEAKNRAKKYKEKVLLSELSEEEQKEIKEAEEKLVRTILKYVEEAAK
(B) F39V (designed binder) SMEEEVEKAAKEYEKKKKEAIEKHLEKLKAKDKEAAERVLKELEEAAKEYAKDEAKTMSEEEAKRRAKKYKEKVLLSELSEEEQKEIKEAEEKLVRTILKYVEEAAK
Field: lower apparent Kd (screen) | Options: A / B Field: selected label. Fill in the label of the entry you choose. A
(A: 1.4 nM, B: 4.39 nM)
